Experiment: Plasma PK of tirabrutinib in two phase I studies
Assay type: in vivo
Conditions: human, oral
measured.quantity: half-life

Given the compound CC#CC(=O)N1CC[C@@H](n2c(=O)n(-c3ccc(Oc4ccccc4)cc3)c3c(N)ncnc32)C1 , what is its reported half-life? 6.2 to 7.3 h

Values compiled from paper PMC9298258.
